system: IGROV1 ovarian; assay: NCI tumour cell line growth inhibition, 48 h
Form field: TGI (one value per entry).

COMPOUND	ASSAY_RESULT
CCOC(=O)c1c(N=P(c2ccccc2)(c2ccccc2)c2ccccc2)nnc(-c2ccccc2)c1-c1ccccc1	> 100 µM
O=C(O)C(O)C(O)C(=O)O (centres undefined)	> 100 µM
Cn1c2ccccc2c2c3c(c4c5ccccc5n(C)c4c21)C(=O)NC3=O	> 71.8 µM

Please find the next compound below.
Memo: CCC1(N=[N+]=[N-])C(=O)c2ccccc2N(C)C1=O (centres undefined) , reported TGI: > 100 µM

---

test system: SK-MEL-28 melanoma; assay: NCI tumour cell line growth inhibition, 48 h
PARAMETER_MEASURED: GI50

Some molecules with known GI50 results, for comparison:
MOLECULE	GI50
CCOC(=O)C(Cc1c[nH]c2c(N(CCO)CCO)cccc12)(NC(C)=O)C(=O)OCC	736 µM
CCCCCCCCCCCCCCCCCC1=NC(C)(C)CN1CC(C)O (stereo not given)	17.1 µM
COc1ccc(-c2cs/c(=N\N=C\c3ccc(O)cc3O)n2/N=C/c2ccc(O)cc2O)cc1	1.88 µM
O=[N+]([O-])c1cc(Cl)c2[nH]c3c(Cl)cc([N+](=O)[O-])cc3c2c1	0.47 µM
S=c1snc2n1CCN2	64.4 µM
CC(=O)c1c(C)nc(SSc2nc(C)c(C(C)=O)c(-c3ccc(Cl)cc3)c2C#N)c(C#N)c1-c1ccc(Cl)cc1	103 µg/mL

Readout GI50 for `O=c1c2cc(F)ccc2sc2c(N3CCNCC3)nc3ccc(F)cc3c12` , test system SK-MEL-28 melanoma, was 1.74 µM

Log: SK-MEL-28 melanoma, molecule CCC(O)c1ccc(Br)cc1NC(=O)c1cccc(Cl)c1 (stereo not given) , GI50 = 23.9 µM

Fill in: SK-MEL-28 melanoma GI50 for `COc1cc(OC)c(C(=O)/C=C/c2cc3c(cc2OCc2ccccc2)OC(C)(C)CC3)cc1CC=C(C)C` = 4.07 µM

Field GI50 (system: SK-MEL-28 melanoma) for entry O=C(/C=C/c1ccccc1)C(Br)C(Br)c1ccccc1 (stereo not given) = 2.04 µM

---

tested on: EKVX NSCLC; assay: NCI tumour cell line growth inhibition, 48 h; in the data active means GI50 below about 0.43 µM; inactive means the rest
Hi! Could you answer with just one of these? True = active, False = inactive

SMILES_RECORD	CATEGORY
O=c1c2cc(F)ccc2sc2c(N3CCNCC3)nc3ccc(F)cc3c12	False
COc1ccc2c(=O)cc(-c3ccccc3)[nH]c2c1	False
COc1ccc(NC(=O)CSC2=C(Nc3cccc(Br)c3)C(=O)N(Cc3ccccc3)C2=O)cc1Cl	False
CCNc1cc(-c2cccc(OC(F)(F)F)c2)nc2ccc(N3CCCC3)cc12	False
Cc1nn[n-]n1.N.N.N.N.N.[Cl-].[Co+3]	False
CC[C@H](Nc1ncnc2nc[nH]c12)c1nc2cccc(F)c2c(=O)n1-c1ccccc1	False
NS(=O)(=O)c1ccc(-n2nc3c(c2-c2ccc(Cl)cc2)Cc2ccccc2-3)cc1	False
CC(=O)c1c(C)nc(SSc2nc(C)c(C(C)=O)c(-c3ccc(Cl)cc3)c2C#N)c(C#N)c1-c1ccc(Cl)cc1	False

In this assay, the call recorded for `C[C@@H]1C[C@H](C)CN(S(=O)(=O)c2ccc3c(NO)c4ccc(S(=O)(=O)N5C[C@H](C)C[C@H](C)C5)cc4c(N=O)c3c2)C1` was what?
True

Test call, this compound: `Nc1nonc1-c1nc2cnccc2n1C1CC1`
False

---

test system: A549 NSCLC; assay: NCI tumour cell line growth inhibition, 48 h
PARAMETER_MEASURED: TGI

COMPOUND	TGI
CN(C)CCNc1ccc(CO)c2sc3ccc(O)cc3c(=O)c12	6.77 µM

// `O=S(=O)(NC1=NCCN1C(=S)SN1CCn2c1nsc2=S)c1cccc2ccccc12` : TGI value = > 100 µM

Looking up Cc1ccc(SC2C(=O)C3CC(OCc4ccccc4)C2(C)C3(C)C)cc1 (configuration not stated) , I found its TGI recorded as > 100 µM

Consider `Cc1ccc2c(c1)C(=O)c1nc(C)ccc1C2=O` . Its measured TGI is > 100 µM

---

test system: 786-0 renal; assay: NCI tumour cell line growth inhibition, 48 h
PARAMETER_MEASURED: TGI

MOLECULE	TARGET_OF_ASSAY	ASSAY_RESULT
CS(=O)(=O)OCCN(CCOS(C)(=O)=O)c1ccc(C=Nc2cccc(Cl)c2)cc1	786-0 renal	> 100 µM

Readout TGI for `CN(C)CCNc1ccc(CO)c2sc3ccc(O)cc3c(=O)c12` , test system 786-0 renal, was 9.37 µM

// TGI (786-0 renal) for `c1ccc2c(c1)c1c(n2CCOCCN2CCCC2)CCCC1` = 29.6 µM

The reported TGI value, 786-0 renal, for `CCCCCCCCCCCCCCCCNC(=O)C(=O)/C=C(\O)c1ccc(C)cc1` reads > 10 µM

Item: `Cc1nc(CC#N)n[nH]1` | System: 786-0 renal | TGI: > 100 µM

The molecule `CC1=NC2=Nc3nc(C)cc[n+]3CN2C=C1` , tested on 786-0 renal, showed TGI of > 100 µM

---

tested on: NCI-H226 lung; test: NCI tumour cell line growth inhibition, 48 h
PARAMETER_MEASURED: TGI

Item: O=C(O)CCS/C(=C\C(SCCC(=O)O)c1ccc(Cl)cc1)c1ccc(Cl)cc1 (stereo not given) | TGI: > 100 µM

According to the records, this molecule `c1cc2c(cc1NC1=NCCO1)OCO2` displays TGI of > 100 µM

Entry COC(=O)CCC1=C(CC(=O)OC)C(C)(OC)N=C1NC(=O)OCc1ccccc1 (stereo not given) — recorded TGI = > 100 µM

Briefly, TGI measured for `CCOC(=O)C(=O)Nc1ccccc1C` : > 100 µM

---

Documented GI50 across a set of molecules
system: MCF7 breast; test: NCI tumour cell line growth inhibition, 48 h

These recorded examples may help you get a feel for the data.
SMILES_RECORD	TARGET_OF_ASSAY	ASSAY_RESULT
COc1cc(OC)c(C(=O)/C=C/c2cc3c(cc2OCc2ccccc2)OC(C)(C)CC3)cc1CC=C(C)C	MCF7 breast	3.08 µM
FC(F)(c1ccc2ncccc2c1)c1nnc2ccc(-c3ccncc3)nn12	MCF7 breast	95.3 µM
COc1cc2nc(SCc3cc(OC)c(OC)c(OC)c3)n(Cc3ccccc3)c(=O)c2cc1OC	MCF7 breast	0.742 µM
CCOC(=O)Nc1nc2ccc(OC)cc2s1	MCF7 breast	> 100 µM

Moving on to the next molecule.
GI50 reported for this molecule `COc1ccc(-c2cs/c(=N\N=C\c3ccc(O)cc3O)n2/N=C/c2ccc(O)cc2O)cc1` : 1.9 µM

---

The following compounds are shown together with reported TGI values.
system: BT-549 breast; experiment: NCI tumour cell line growth inhibition, 48 h
// return numeric value only (unit: µM, not printed)

Example entries and their recorded answers appear below.
COMPOUND	READING_UNIT	TGI
CC(C)(C)OC(=O)NC1CC2(C=C(Br)C(=O)C(Br)=C2)OC1=O (stereo not given)	µM	30.3
O=[N+]([O-])c1cc(Cl)c2[nH]c3c(Cl)cc([N+](=O)[O-])cc3c2c1	µM	5.34
CCCCCCCCCCCCCCCCCC1=NC(C)(C)CN1CC(C)O (stereo not given)	µM	40.9
CC(=O)Oc1ccc(C23c4ccccc4C2(OC(C)=O)c2cc(OC(C)=O)ccc23)cc1 (stereo not given)	µM	6.49
COc1ccc(-c2cs/c(=N\N=C\c3ccc(O)cc3O)n2/N=C/c2ccc(O)cc2O)cc1	µM	3.59
CN1CN(c2ccccc2)C2(CCN(CC(C)(c3ccc(F)cc3)C3OCCCO3)CC2)C1=O (stereo not given)	µM	19.2

For this compound ( `Cn1c(-c2c(N)n(Nc3cccc(Cl)c3)c3nc(C#N)c(C#N)nc23)nc2ccccc21` ), measured TGI is 1.97

Just so you know, measured TGI for COc1c(/C=C/C(C)(C)O)cc(C2CC(=O)c3c(O)cc(O)cc3O2)cc1CC=C(C)C (stereo not given) came out at 15.8

---

test system: M14 melanoma; assay: NCI tumour cell line growth inhibition, 48 h
PARAMETER_MEASURED: TGI

Past entries and their recorded results:
COMPOUND	TGI
COc1cc(C2SCCCCCCCCCCSC(c3ccc(O)c(OC)c3)SCCCCCCCCCCS2)ccc1O (stereo not drawn)	> 100 µM
Cc1nc(CC#N)n[nH]1	> 100 µM
CCCNC(=O)C1C(=O)C(=O)N(CCC)C1=O (stereo not drawn)	> 100 µM
O=S(=O)(NC1=NCCN1C(=S)SN1CCn2c1nsc2=S)c1cccc2ccccc12	> 100 µM
O=C(O)CCS/C(=C\C(SCCC(=O)O)c1ccc(Cl)cc1)c1ccc(Cl)cc1 (stereo not drawn)	> 100 µM
NCCSSCCN	> 100 µM
CC1=C[C@H]2c3c([nH]c4ccccc34)C(c3c[nH]c4ccccc34)[C@H]2CC1 (stereo partly drawn)	19.2 µM
O=C(/C=C/c1ccccc1)CSc1ncn[nH]1	> 100 µM
NC(=S)/N=C(/c1nc2ccc(Cl)cc2[nH]c1=O)C(O)c1ccccc1Cl (stereo not drawn)	> 100 µM
C/C=C(/I)CBr	28.7 µM

GET /value?item= `c1cc2c(cc1NC1=NCCO1)OCO2` &field=TGI returns > 100 µM

The compound listed as `CCOC(=O)c1nnsc1N/N=C\c1ccc([N+](=O)[O-])cc1` has a reported TGI of > 100 µM

Please fill in: TGI reported for `Cn1c2ccccc2c2c3c(c4c5ccccc5n(C)c4c21)C(=O)NC3=O` = > 100 µM
